molecular target: PARP1 (Homo sapiens); construct: endogenous in cells; host or cells: PC3; experiment: PARP1 trapping, chromatin fractionation (chromatin-bound fraction); assay type: cell-based; settings: 0.5 μM and 2 μM; PC3 cells
Sequence (P09874 whole entry, species assumed): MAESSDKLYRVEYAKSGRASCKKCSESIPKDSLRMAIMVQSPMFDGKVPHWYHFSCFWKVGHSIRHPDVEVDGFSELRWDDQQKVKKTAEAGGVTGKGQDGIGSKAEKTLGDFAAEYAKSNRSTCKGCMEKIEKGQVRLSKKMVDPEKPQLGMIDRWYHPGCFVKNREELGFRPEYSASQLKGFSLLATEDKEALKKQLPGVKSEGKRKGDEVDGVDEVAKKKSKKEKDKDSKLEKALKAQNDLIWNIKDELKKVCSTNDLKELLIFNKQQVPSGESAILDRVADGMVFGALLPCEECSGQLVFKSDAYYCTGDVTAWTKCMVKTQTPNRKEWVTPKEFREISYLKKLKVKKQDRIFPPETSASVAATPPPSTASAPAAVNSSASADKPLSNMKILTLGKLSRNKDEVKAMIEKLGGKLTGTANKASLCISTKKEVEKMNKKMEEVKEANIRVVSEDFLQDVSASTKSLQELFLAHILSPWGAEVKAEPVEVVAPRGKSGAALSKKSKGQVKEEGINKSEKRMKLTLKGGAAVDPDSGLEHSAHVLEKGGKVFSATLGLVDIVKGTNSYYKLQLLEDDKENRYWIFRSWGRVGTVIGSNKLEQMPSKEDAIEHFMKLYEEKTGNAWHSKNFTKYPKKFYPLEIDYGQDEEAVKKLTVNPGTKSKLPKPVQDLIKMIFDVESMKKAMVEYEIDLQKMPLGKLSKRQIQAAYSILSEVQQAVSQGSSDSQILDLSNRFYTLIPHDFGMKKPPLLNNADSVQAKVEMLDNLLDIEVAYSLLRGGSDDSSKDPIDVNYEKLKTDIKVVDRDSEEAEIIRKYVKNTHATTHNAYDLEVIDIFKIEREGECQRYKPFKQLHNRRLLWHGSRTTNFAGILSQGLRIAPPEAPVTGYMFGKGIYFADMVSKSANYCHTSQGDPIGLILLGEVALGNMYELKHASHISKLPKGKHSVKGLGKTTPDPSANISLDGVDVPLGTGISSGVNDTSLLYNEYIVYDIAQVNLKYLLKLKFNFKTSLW

{"columns": ["COMPOUND", "EXPERIMENTAL SYSTEM", "PARP1 trapped on DNA lesions"],
 "data": [
  ["O=C1/C(=C/c2ccc(F)c(F)c2)CC(NC(=O)c2ccc(NCCN3CCCCC3)cc2)C/C1=C\\c1ccc(F)c(F)c1 (stereo not drawn) [JCS028]", "PARP1 (Homo sapiens)", "trapped"],
  ["CC(C)N(CCOc1ccc(C(=O)NC2C/C(=C\\c3ccc(F)c(F)c3)C(=O)/C(=C/c3ccc(F)c(F)c3)C2)cc1)C(C)C (stereo not drawn) [JCS013]", "PARP1 (Homo sapiens)", "trapped"],
  ["O=C1/C(=C/c2ccc(F)c(F)c2)CC(NC(=O)c2ccc(OCCN3CCCC3)cc2)C/C1=C\\c1ccc(F)c(F)c1 (stereo not drawn) [JCS008]", "PARP1 (Homo sapiens)", "trapped"]
]}

====

target: ATR (Homo sapiens, UniProt Q13535); construct: endogenous in cells; host or cells: PC3, C4-2B/MR, SUM149PT-BRCA1rev, UWB1.289+BRCA1, MDA-MB-231; experiment: ATR-mediated signaling: phosphorylation of Rad17 Ser 645 and CHK1 Ser 345 in cells; type: cell-based; settings: 1 μM and 2 μM; PC3 cells
Sequence (Q13535 whole entry): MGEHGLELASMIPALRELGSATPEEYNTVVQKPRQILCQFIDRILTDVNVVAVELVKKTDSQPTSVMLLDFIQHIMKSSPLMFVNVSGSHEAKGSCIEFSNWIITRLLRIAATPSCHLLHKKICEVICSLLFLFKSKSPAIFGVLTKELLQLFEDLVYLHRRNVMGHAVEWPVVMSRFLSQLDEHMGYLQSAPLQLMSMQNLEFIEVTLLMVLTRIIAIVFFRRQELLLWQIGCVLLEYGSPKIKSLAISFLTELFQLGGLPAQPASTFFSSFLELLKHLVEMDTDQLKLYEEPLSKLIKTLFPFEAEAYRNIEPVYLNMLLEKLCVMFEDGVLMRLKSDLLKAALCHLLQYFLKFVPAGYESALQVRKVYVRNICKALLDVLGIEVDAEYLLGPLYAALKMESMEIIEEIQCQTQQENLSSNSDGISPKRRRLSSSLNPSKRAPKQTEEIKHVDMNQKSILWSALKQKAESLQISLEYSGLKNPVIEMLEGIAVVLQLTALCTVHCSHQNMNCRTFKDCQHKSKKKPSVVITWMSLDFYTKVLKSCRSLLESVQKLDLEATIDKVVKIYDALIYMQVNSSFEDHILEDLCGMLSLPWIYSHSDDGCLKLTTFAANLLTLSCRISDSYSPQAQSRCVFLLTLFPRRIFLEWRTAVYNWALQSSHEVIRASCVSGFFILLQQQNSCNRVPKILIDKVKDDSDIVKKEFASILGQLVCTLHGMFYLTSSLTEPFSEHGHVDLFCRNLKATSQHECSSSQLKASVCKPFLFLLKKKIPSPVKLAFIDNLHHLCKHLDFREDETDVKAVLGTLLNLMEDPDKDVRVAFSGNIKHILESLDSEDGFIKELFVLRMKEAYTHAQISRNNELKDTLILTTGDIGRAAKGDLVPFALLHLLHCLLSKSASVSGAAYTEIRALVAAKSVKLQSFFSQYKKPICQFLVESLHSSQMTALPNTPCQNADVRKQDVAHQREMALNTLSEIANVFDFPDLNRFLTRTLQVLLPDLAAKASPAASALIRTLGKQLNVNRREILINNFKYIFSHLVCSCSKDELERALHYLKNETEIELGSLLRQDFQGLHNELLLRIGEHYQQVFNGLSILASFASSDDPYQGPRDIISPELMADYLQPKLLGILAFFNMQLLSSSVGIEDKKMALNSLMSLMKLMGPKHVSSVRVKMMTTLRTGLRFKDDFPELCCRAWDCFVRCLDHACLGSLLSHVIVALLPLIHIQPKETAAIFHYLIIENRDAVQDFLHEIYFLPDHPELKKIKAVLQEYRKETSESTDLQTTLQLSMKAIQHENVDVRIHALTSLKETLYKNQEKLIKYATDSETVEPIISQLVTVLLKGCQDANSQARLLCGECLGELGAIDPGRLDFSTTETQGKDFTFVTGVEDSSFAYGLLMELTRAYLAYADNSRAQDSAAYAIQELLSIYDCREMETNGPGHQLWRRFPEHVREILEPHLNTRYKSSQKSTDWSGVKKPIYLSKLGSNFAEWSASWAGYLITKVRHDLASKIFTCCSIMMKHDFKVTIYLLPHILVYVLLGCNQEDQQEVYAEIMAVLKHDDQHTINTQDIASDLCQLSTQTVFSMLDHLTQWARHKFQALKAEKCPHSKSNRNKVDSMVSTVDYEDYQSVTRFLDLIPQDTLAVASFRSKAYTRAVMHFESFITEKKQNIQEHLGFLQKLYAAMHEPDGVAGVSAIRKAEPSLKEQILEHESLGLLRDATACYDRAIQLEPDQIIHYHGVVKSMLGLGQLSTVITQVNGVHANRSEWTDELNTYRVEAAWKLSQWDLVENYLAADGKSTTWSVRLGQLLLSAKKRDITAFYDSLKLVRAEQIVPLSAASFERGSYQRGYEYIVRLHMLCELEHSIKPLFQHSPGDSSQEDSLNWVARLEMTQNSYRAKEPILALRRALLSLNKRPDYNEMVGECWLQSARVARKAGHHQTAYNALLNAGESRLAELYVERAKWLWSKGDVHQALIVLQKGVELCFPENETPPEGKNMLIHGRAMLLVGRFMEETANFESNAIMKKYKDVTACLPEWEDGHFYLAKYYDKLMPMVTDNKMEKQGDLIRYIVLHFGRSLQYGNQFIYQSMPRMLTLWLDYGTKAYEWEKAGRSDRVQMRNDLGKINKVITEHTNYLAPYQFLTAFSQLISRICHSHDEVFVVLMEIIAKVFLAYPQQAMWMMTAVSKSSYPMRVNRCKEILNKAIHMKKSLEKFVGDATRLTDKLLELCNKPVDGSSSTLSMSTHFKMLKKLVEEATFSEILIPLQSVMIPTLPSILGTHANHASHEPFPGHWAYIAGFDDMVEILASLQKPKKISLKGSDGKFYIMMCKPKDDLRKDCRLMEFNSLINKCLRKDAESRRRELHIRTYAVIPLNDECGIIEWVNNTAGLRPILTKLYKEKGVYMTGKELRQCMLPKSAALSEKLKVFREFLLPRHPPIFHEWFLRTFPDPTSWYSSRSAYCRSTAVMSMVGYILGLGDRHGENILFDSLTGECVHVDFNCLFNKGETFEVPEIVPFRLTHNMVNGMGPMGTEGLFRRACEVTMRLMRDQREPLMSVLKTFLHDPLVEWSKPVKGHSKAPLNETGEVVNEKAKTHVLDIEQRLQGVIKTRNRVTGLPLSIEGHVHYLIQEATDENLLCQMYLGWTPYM
Sequence (Q8WXE1 whole entry partner): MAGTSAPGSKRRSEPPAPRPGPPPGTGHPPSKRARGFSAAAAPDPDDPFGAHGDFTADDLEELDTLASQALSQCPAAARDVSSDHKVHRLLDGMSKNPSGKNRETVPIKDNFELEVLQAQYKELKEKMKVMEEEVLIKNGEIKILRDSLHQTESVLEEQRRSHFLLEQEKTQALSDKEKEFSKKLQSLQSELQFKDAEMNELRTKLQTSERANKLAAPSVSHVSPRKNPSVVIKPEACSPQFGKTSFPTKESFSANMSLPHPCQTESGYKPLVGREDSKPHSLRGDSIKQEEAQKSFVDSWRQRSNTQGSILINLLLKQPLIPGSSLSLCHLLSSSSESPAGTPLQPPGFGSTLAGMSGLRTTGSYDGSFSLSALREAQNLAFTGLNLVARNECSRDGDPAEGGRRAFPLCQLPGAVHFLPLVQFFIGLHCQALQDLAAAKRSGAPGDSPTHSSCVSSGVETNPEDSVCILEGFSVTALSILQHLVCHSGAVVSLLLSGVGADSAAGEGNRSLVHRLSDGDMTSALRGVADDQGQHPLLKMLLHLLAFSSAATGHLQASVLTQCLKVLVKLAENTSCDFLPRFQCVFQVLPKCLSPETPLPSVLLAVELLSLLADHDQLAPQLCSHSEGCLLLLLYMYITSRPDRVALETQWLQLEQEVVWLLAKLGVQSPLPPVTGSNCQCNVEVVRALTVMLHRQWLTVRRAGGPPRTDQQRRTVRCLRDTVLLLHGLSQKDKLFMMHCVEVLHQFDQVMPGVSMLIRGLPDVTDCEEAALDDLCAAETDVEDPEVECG
PARAMETER MEASURED: Olaparib induced phosphorylation of Rad17 at Ser 645 and CHK1 at Ser 345

{"columns": ["MOLECULE", "RESULT"],
 "data": [
  ["CN(C)CCCN(CCCN(C)C)C(=O)Nc1ccc(C(=O)NC2C/C(=C\\c3ccc(F)c(F)c3)C(=O)/C(=C/c3ccc(F)c(F)c3)C2)cc1 (stereo not drawn) [JCS058]", "inhibited"],
  ["O=C1/C(=C/c2cc(Cl)cc(Cl)c2)CC(NC(=O)c2ccc(OCCN3CCCCC3)cc2)C/C1=C\\c1cc(Cl)cc(Cl)c1 (stereo not drawn) [JCS061]", "inhibited"],
  ["CCCN(CCC)CCOc1ccc(C(=O)NC2C/C(=C\\c3cc(Cl)cc(Cl)c3)C(=O)/C(=C/c3cc(Cl)cc(Cl)c3)C2)cc1 (stereo not drawn) [JCS062]", "inhibited"]
]}

====

molecular target: ATR (Homo sapiens); construct: endogenous in cells; host or cells: PC3, C4-2B/MR, SUM149PT-BRCA1rev, UWB1.289+BRCA1, MDA-MB-231; experiment: ATR-mediated signaling: phosphorylation of Rad17 Ser 645 and CHK1 Ser 345 in cells; assay type: cell-based; conditions: C4-2B/MR cells
PARAMETER MEASURED: ATR inhibition relative to JC046 (OLA or UV induced phosphorylation of Rad17 and CHK1)

{"columns": ["STRUCTURE", "EXPERIMENTAL SYSTEM", "RESULT"],
 "data": [
  ["O=C1/C(=C/c2ccc(F)c(F)c2)CN(C(=O)CCN2CCC2)C/C1=C\\c1ccc(F)c(F)c1", "ATR (Homo sapiens)", "close to JC046"],
  ["C[C@@H]1CCCN1CCC(=O)N1C/C(=C\\c2ccc(F)c(F)c2)C(=O)/C(=C/c2ccc(F)c(F)c2)C1", "ATR (Homo sapiens)", "close to JC046"]
]}
